Target: hGLP-1R (Homo sapiens, UniProt P43220)
Sequence (P43220 24-463): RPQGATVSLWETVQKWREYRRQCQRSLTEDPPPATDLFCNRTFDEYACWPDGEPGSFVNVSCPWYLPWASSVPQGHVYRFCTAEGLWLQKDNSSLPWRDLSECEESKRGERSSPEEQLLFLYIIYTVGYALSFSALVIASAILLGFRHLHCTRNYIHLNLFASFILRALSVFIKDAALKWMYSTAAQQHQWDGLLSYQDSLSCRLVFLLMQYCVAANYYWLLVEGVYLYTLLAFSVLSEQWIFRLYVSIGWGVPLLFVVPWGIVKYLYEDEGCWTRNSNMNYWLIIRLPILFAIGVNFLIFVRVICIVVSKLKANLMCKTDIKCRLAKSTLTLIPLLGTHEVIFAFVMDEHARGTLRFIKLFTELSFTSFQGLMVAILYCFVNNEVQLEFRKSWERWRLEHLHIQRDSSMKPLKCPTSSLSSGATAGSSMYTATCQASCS
Assay: Functional cAMP activity in the presence of 1% HSA
Assay type: cell-based
Conditions: read-out: cAMP Rel EC50, hGLP-1R
Starred links: 1 amine or outer side, 2 acyl side, 3 side chain; linkers in the order of their positions; H or OH if unused. Non-standard residues stand in square brackets, D forms with d. Groups on a side chain read outwards from the residue. *: point of attachment. C20 diacid = O=C(O)CCCCCCCCCCCCCCCCCCC(=O)*; C18 diacid = O=C(O)CCCCCCCCCCCCCCCCC(=O)*; αMePhe(2-F) = C[C@](N)(Cc1ccccc1F)C(=O)O; γGlu = O=C(O)[C@H](CCC(=O)[*:2])N[*:1]; αMe4Pal = C[C@](N)(Cc1ccncc1)C(=O)O; αMeY = C[C@](N)(Cc1ccc(O)cc1)C(=O)O; 4Pal = N[C@@H](Cc1ccncc1)C(=O)O; αMeL = CC(C)C[C@](C)(N)C(=O)O; αMeS = C[C@](N)(CO)C(=O)O; Orn = NCCC[C@H](N)C(=O)O; AEEA = NCCOCCOCC(=O)O; Aib = CC(C)(N)C(=O)O
Overview of recorded EC50 for various substances
Give a bare numeral; the unit nM is implied.

H-Y[Aib]QGTFTSDFS[Orn][αMeL]LDKK([AEEA-AEEA-γGlu-C18 diacid])AQ[Aib]AFIEYLLE[Aib]G[4Pal]SSGAPPPSGE-NH2 [Example 189] | 423
H-Y[Aib]QGT[αMePhe(2-F)]TSD[4Pal][αMeS]I[αMeL]LD[Orn]K([AEEA-γGlu-C18 diacid])AQ[Aib][Orn]FI[dE][αMeY]LIEGGPSSGEPPPSEG-NH2 [Example 401] | 12
H-Y[Aib]QGTFTSDYSI[αMeL]LDKK([AEEA-γGlu-C20 diacid])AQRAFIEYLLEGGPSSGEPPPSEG-NH2 [Example 289] | 139
H-Y[Aib]QGTFTSDFSK[αMeL]LDKK([AEEA-γGlu-C20 diacid])AQ[Aib]AFIEYLLE[Aib]GPSSGAPPPSGS-NH2 [Example 45] | 493
H-Y[Aib]QGTFTSD[4Pal]S[Orn][αMeL]LDKK([γGlu-γGlu-C18 diacid])AQ[αMe4Pal]AFIEYLIE[Aib]GPSSGAPPPSGS-NH2 [Example 865] | 351

Here is another substance to look at.
query: Name the reported EC50 value associated with the substance H-Y[Aib]QGTFTSDFS[Orn][αMeL]LDKK([AEEA-γGlu-C18 diacid])AQ[Aib]AFIEYLLEGGPSSGEPPPSGS-NH2 [Example 131]
result: 984
